Data provenance is paper PMC3794980.

measurement-target: DRB3*0101 (Homo sapiens, UniProt P01903+P79483)
assay-text: biochemical
Consider the following compounds; for each one, report its IC50.

>>> observed_result("CC[C@H](C)[C@H](NC(=O)[C@H](CCC(=O)O)NC(=O)CNC(=O)[C@H](CCCNC(=N)N)NC(=O)[C@H](CCCCN)NC(=O)[C@@H](N)CC(C)C)C(=O)N[C@H](C(=O)N[C@@H](Cc1c[nH]cn1)C(=O)N[C@@H](Cc1c[nH]cn1)C(=O)N[C@@H](C)C(=O)N[C@H](C(=O)N[C@@H](CO)C(=O)N[C@@H](CCCNC(=N)N)C(=O)NCC(=O)N[C@@H](CO)C(=O)N[C@@H](C)C(=O)N[C@@H](CCCCN)C(=O)O)C(C)C)[C@@H](C)O")
"7.5 µM"

I would be grateful if you could provide IC50 for each of the following entries.
1. CC[C@H](C)[C@H](NC(=O)[C@H](CC(=O)O)NC(=O)[C@@H](N)[C@@H](C)O)C(=O)N[C@@H](CO)C(=O)N[C@@H](CCC(=O)O)C(=O)N[C@@H](CCSC)C(=O)NCC(=O)N[C@@H](C)C(=O)N[C@@H](CC(N)=O)C(=O)N[C@@H](Cc1ccccc1)C(=O)N[C@@H](CCCCN)C(=O)N[C@@H](C)C(=O)N[C@@H](CC(=O)O)C(=O)N[C@@H](CCCNC(=N)N)C(=O)N[C@H](C(=O)O)C(C)C
2. CC[C@H](C)[C@H](NC(=O)[C@@H](NC(=O)[C@H](CCCNC(=N)N)NC(=O)[C@H](CC(=O)O)NC(=O)[C@H](C)NC(=O)[C@H](CCCCN)NC(=O)[C@H](Cc1ccccc1)NC(=O)[C@@H](N)CC(N)=O)C(C)C)C(=O)N[C@@H](CC(=O)O)C(=O)N1CCC[C@H]1C(=O)N[C@@H](CCCNC(=N)N)C(=O)N[C@@H](CCCNC(=N)N)C(=O)N[C@@H](CS)C(=O)N[C@@H](CC(C)C)C(=O)N[C@@H](CCCCN)C(=O)O
3. CC[C@H](C)[C@H](NC(=O)[C@H](CO)NC(=O)[C@H](C)N)C(=O)N[C@@H](C)C(=O)N[C@@H](C)C(=O)N[C@@H](CCCNC(=N)N)C(=O)NCC(=O)N[C@@H](Cc1ccc(O)cc1)C(=O)N[C@H](C(=O)N[C@@H](CO)C(=O)N[C@H](C(=O)N[C@@H](CCCNC(=N)N)C(=O)N[C@H](C(=O)NCC(=O)N[C@@H](CCSC)C(=O)O)C(C)C)[C@@H](C)O)[C@@H](C)CC
4. CC(C)C[C@H](NC(=O)[C@H](CCC(=O)O)NC(=O)[C@H](CCCCN)NC(=O)[C@@H](N)CCCNC(=N)N)C(=O)N[C@@H](CC(C)C)C(=O)N[C@H](C(=O)N[C@H](C(=O)N[C@@H](Cc1ccccc1)C(=O)N[C@@H](CCCCN)C(=O)N[C@@H](CC(N)=O)C(=O)N[C@@H](C)C(=O)N[C@@H](Cc1c[nH]cn1)C(=O)N[C@@H](C)C(=O)N[C@@H](CCCCN)C(=O)N[C@@H](CCCCN)C(=O)O)[C@@H](C)O)C(C)C

1. 0.168 µM
2. 0.632 µM
3. 18.9 µM
4. 16.5 µM
